Condition details: in di(2-ethylhexyl) phthalate, 332.52 K
Property: solubility (mole fraction)
Lab note: record the figure alone, no unit after it.

Q: State, in one line, measured solubility (mole fraction) of Cc1ccc(N)cc1N
Ans: 0.0871

====

Condition details: in dimethyl carbonate, 317.45 K
Property: solubility (mole fraction)
# answer = number (no unit)

Q: Output measured solubility (mole fraction) for this item: Cc1ccc(N)cc1N
Ans: 0.121

====

Condition details: in dimethyl carbonate, 324.35 K
Property: solubility (mole fraction)
// response body must contain only the number

Q: Look up solubility (mole fraction) of COC(=O)Nc1ccc(C)c(NC(=O)OC)c1 and report it.
Ans: 0.0173

====

Condition details: in dimethyl carbonate, 316.55 K
Property: solubility (mole fraction)
The answer should be a number; do not append a unit.

Q: Consider the compound Cc1ccc(N)cc1N . State its measured solubility (mole fraction).
Ans: 0.118

====

Condition details: in di(2-ethylhexyl) phthalate, 398.15 K
Property: solubility (mole fraction)
Give the figure only, with no unit attached.

Q: Identify measured solubility (mole fraction) associated with COC(=O)Nc1ccc(C)c(NC(=O)OC)c1
Ans: 0.2

====

Condition details: in dimethyl carbonate, 320.65 K
Property: solubility (mole fraction)
API note: the answer field is a bare number with no unit suffix.

Q: Check the records and state solubility (mole fraction) for COC(=O)Nc1ccc(C)c(N)c1
Ans: 0.0552

====

Condition details: in di(2-ethylhexyl) phthalate, 341.65 K
Property: solubility (mole fraction)
Give your answer as a number; write no unit.

Q: Please give measured solubility (mole fraction) of the following entry: COC(=O)Nc1ccc(C)c(N)c1
Ans: 0.0522

====

Condition details: in dimethyl carbonate, 334.45 K
Property: solubility (mole fraction)
Write no unit; give the number alone.

Q: Using the record for COC(=O)Nc1ccc(C)c(N)c1 , state its measured solubility (mole fraction).
Ans: 0.0706

====

Condition details: in di(2-ethylhexyl) phthalate, 324.25 K
Property: solubility (mole fraction)
# answer = number (no unit)

Q: Look up and report measured solubility (mole fraction) for this entry: Cc1ccc(N)cc1N
Ans: 0.075

====

Condition details: in dimethyl carbonate, 365.15 K
Property: solubility (mole fraction)
Please state the value as a number alone, without comment.

Q: Annotate the compound COC(=O)Nc1ccc(C)c(NC(=O)OC)c1 with its measured solubility (mole fraction).
Ans: 0.0535

====

Condition details: in dimethyl carbonate, 306.35 K
Property: solubility (mole fraction)

Q: Identify solubility (mole fraction) associated with the molecule COC(=O)Nc1ccc(C)c(N)c1
Ans: 0.0339

====

Condition details: in dimethyl carbonate, 360.75 K
Property: solubility (mole fraction)
Answer with a bare number; do not write a unit.

Q: Using the record for COC(=O)Nc1ccc(C)c(NC(=O)OC)c1 , state its measured solubility (mole fraction).
Ans: 0.0503

====

Condition details: in dimethyl carbonate, 339.35 K
Property: solubility (mole fraction)
Answer with the value's number alone.

Q: Give reported solubility (mole fraction) value for COC(=O)Nc1ccc(C)c(NC(=O)OC)c1
Ans: 0.0299

====

Condition details: in di(2-ethylhexyl) phthalate, 363.65 K
Property: solubility (mole fraction)

Q: Report measured solubility (mole fraction); entry is COC(=O)Nc1ccc(C)c(NC(=O)OC)c1
Ans: 0.178

====

Condition details: in dimethyl carbonate, 353.15 K
Property: solubility (mole fraction)
Lab note: jot down the number only; don't add units.

Q: Using the record for COC(=O)Nc1ccc(C)c(NC(=O)OC)c1 , state its measured solubility (mole fraction).
Ans: 0.0423
